For each record, write down the corresponding EC50.
target system: hCB2 (Homo sapiens, UniProt P34972)
Sequence (P34972 whole entry): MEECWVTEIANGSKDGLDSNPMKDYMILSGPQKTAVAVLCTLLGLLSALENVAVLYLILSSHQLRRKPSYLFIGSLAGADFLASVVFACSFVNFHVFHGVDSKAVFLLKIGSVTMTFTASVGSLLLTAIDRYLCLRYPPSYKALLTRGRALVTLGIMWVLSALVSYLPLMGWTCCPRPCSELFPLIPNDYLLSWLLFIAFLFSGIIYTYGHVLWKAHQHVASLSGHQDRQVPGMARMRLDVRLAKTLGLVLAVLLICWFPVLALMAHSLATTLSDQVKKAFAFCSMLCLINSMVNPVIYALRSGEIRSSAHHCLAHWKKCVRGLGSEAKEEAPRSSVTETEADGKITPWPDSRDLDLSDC
assay comment: hCB2 GTPγS agonist assay (HEK-293 membranes)
Assay type: biochemical

Past entries and their recorded results:
{"columns": ["entry smiles", "EC50"],
 "data": [
  ["CCCn1c(C)c(C(=O)c2cc3sccc3s2)c2ccccc21", "100 to 1000 nM"],
  ["CCn1c(C(=O)c2c(C)n(CCCCl)c3ccccc23)cc2ccsc21", "< 100 nM"],
  ["CCCn1c(C(=O)c2c(C)n(CC)c3ccccc23)cc2ccsc21", "< 100 nM"],
  ["CCCn1c(C)c(C(=O)c2cccc3ccccc23)c2sccc21", "< 100 nM"],
  ["CCn1c(C(=O)c2cn(CCCNS(C)(=O)=O)c3ccccc23)cc2ccsc21", "< 100 nM"]
]}

Provide EC50 values for the following items, in order.
1. CCCn1cc(C(=O)c2cc3ccsc3n2CC)c2cccnc21
2. CCCn1c(C)c(C(=O)c2cc3sccc3[nH]2)c2ccccc21
3. CCCn1cc(C(=O)c2cc3ccsc3n2CCC)c2ccccc21
4. CCCn1c(C(=O)c2c(C)n(CCC3CCOCC3)c3ccccc23)cc2ccsc21

1: < 100 nM; 2: 100 to 1000 nM; 3: < 100 nM; 4: < 100 nM

====

For each record, write down the corresponding EC50.
target system: hCB2 (Homo sapiens, UniProt P34972)
assay comment: hCB2 GTPγS agonist assay (HEK-293 membranes)
Type: biochemical

Past entries and their recorded results:
{"columns": ["compound", "EC50"],
 "data": [
  ["CCCn1c(C)c(C(=O)c2cc3ccsc3n2CCC)c2cc(Cl)ccc21 [Compound I-52]", "100 to 1000 nM"],
  ["Cc1[nH]c2sccc2c1C(=O)c1cccc2ccccc12 [Compound I-3]", "< 100 nM"]
]}

Provide EC50 values for the following items, in order.
1. CCCn1c(C(=O)c2c(C)n(CCN3CCOCC3)c3sccc23)cc2ccccc21 [Compound I-11]
2. CCn1c(C(=O)c2c(C)n(CC3CCOCC3)c3ccccc23)cc2ccsc21 [Compound I-17]
3. CCCn1c(C)c(C(=O)c2cc3ccsc3n2CC)c2c1CCCC2 [Compound I-85]
4. CCn1c(C(=O)c2cn(CC3CCOCC3)c3ccccc23)cc2ccsc21 [Compound I-16]

1. < 100 nM
2. < 100 nM
3. < 100 nM
4. < 100 nM

Provide EC50 values for the following items, in order.
1. C=CCn1cc(C(=O)c2cc3ccsc3n2CC)c2cnccc21 [Compound I-21]
2. CCn1c(C(=O)c2c3c(n(CC4CCOCC4)c2C)CCCC3)cc2ccsc21 [Compound I-86]
3. CCCn1c(C)c(C(=O)c2cc3ccsc3n2CC)c2ccccc21 [Compound I-54]
4. CCCCn1c(C)c(C(=O)c2cc3ccsc3n2CCC)c2ccccc21 [Compound I-58]
5. CCCn1c(C)c(C(=O)c2cc3ccsc3n2C)c2ccccc21 [Compound I-55]

100 to 1000 nM
< 100 nM
< 100 nM
< 100 nM
100 to 1000 nM

Provide EC50 values for the following items, in order.
1. Cc1c(C(=O)c2cc3ccsc3[nH]2)c2ccccc2n1CCN1CCOCC1 [Compound I-82]
2. Cc1c(C(=O)c2cccc3ccccc23)c2ccsc2n1CCN1CCOCC1 [Compound I-5]
3. CCCn1c(C(=O)c2c(C)n(CCN3CCCCC3)c3ccccc23)cc2ccsc21 [Compound I-59]
4. CCCn1cc(C(=O)c2cc3ccsc3n2CC)c2ccccc21 [Compound I-70]
5. CCCn1c(C)c(C(=O)c2cc3cc(C)n(CCC)c3s2)c2ccccc21 [Compound I-56]

1. 100 to 1000 nM
2. < 100 nM
3. 100 to 1000 nM
4. < 100 nM
5. < 100 nM

Provide EC50 values for the following items, in order.
1. CCCn1c(C(=O)c2cn(CC)c3ccccc23)cc2ccsc21 [Compound I-42]
2. CCCn1c(C(=O)c2cn(C)c3ccccc23)cc2ccsc21 [Compound I-47]
3. CCCn1cc(C(=O)c2cc3ccsc3n2C)c2ccccc21 [Compound I-32]
4. CCCn1c(C(=O)c2cn(CC3CCOCC3)c3ccccc23)cc2ccsc21 [Compound I-41]
5. CCCn1c(C)c(C(=O)c2cc3ccsc3s2)c2ccccc21 [Compound I-46]
6. CCCn1c(C)c(C(=O)c2cc3scnc3n2CC)c2ccccc21 [Compound I-31]

1. < 100 nM
2. 100 to 1000 nM
3. < 100 nM
4. < 100 nM
5. 100 to 1000 nM
6. 100 to 1000 nM

Provide EC50 values for the following items, in order.
1. CCCn1c(C)c(C(=O)c2cc3ccsc3n2CC)c2cccc(OC)c21 [Compound I-36]
2. CCCn1c(C(=O)c2c(C)n(CC3CCOCC3)c3ccccc23)cc2ccsc21 [Compound I-66]
3. Cc1c(C(=O)c2cccc3ccccc23)c2sccc2n1CCN1CCOCC1 [Compound I-1]
4. CCCn1c(C)c(C(=O)c2cc3ccsc3n2CCC)c2cc(C)ccc21 [Compound I-69]
5. CCCn1c(C(=O)c2c(C)n(CCN3CCOCC3)c3ccccc23)cc2ccsc21 [Compound I-73]
6. CCCCCn1c(C)c(C(=O)c2cc3ccsc3n2CCC)c2ccccc21 [Compound I-60]

1. < 100 nM
2. < 100 nM
3. < 100 nM
4. < 100 nM
5. < 100 nM
6. < 100 nM

Provide EC50 values for the following items, in order.
1. CCCn1c(C)c(C(=O)c2cc3ccsc3[nH]2)c2ccccc21 [Compound I-74]
2. CCCn1c(C)c(C(=O)c2cc3cc(Cl)sc3[nH]2)c2ccccc21 [Compound I-48]
3. CCCn1c(C(=O)c2c(C)n(CCC)c3sccc23)cc2ccccc21 [Compound I-14]
4. CCCn1c(C)c(C(=O)c2cccc3ccccc23)c2ccsc21 [Compound I-2]
5. CCCn1cc(C(=O)c2cc3ccsc3n2CC)c2cnccc21 [Compound I-22]
6. CCCn1c(C)c(C(=O)c2cc3ccsc3n2CCC)c2ccccc21 [Compound I-78]
7. CCCn1cc(C(=O)c2cc3ccsc3n2CCC)c2cccnc21 [Compound I-45]
8. CCCn1cc(C(=O)c2cc3ccsc3n2CC)c2ccncc21 [Compound I-23]

100 to 1000 nM
100 to 1000 nM
100 to 1000 nM
100 to 1000 nM
100 to 1000 nM
< 100 nM
< 100 nM
100 to 1000 nM

Specify the recorded EC50 for CCCn1c(C)c(C(=O)c2cc3cc(Cl)sc3n2CCC)c2ccccc21 [Compound I-49] , system: hCB2 (Homo sapiens, UniProt P34972).
< 100 nM

====

target system: hCB2 (Homo sapiens, UniProt P34972)
assay comment: hCB2 radioligand binding assay ([3H]-CP 55,940 displacement)
test context: hCB2 IC50 (CP displ, nM, HEK), HEK membranes
For each record, write down the corresponding IC50.

Past entries and their recorded results:
{"columns": ["compound", "target system", "IC50"],
 "data": [
  ["CCCn1cc(C(=O)c2cc3ccsc3n2CCC)c2ccccc21 [Compound I-62]", "hCB2 (Homo sapiens, UniProt P34972)", "< 100 nM"],
  ["CCCn1c(C)c(C(=O)c2cc3cc(Cl)sc3[nH]2)c2c1CCCC2 [Compound I-76]", "hCB2 (Homo sapiens, UniProt P34972)", "100 to 1000 nM"],
  ["CCCn1c(C)c(C(=O)c2cc3scnc3[nH]2)c2ccccc21 [Compound I-30]", "hCB2 (Homo sapiens, UniProt P34972)", "1000 to 10000 nM"],
  ["CCn1c(C(=O)c2c(C)n(CCCNS(C)(=O)=O)c3ccccc23)cc2ccsc21 [Compound I-19]", "hCB2 (Homo sapiens, UniProt P34972)", "< 100 nM"]
]}

Provide IC50 values for the following items, in order.
1. CCCn1c(C(=O)c2c(C)n(CCN3CCCCC3)c3ccccc23)cc2ccsc21 [Compound I-59]
2. CCCn1cc(C(=O)c2cc3ccsc3n2CC)c2cnccc21 [Compound I-22]
3. Cc1c(C(=O)c2cc3ccsc3[nH]2)c2ccccc2n1CCN1CCOCC1 [Compound I-82]
4. CCCn1c(C)c(C(=O)c2cc3ccsc3n2CC)c2c1CCCCC2 [Compound I-87]

["< 100 nM", "100 to 1000 nM", "100 to 1000 nM", "< 100 nM"]

Provide IC50 values for the following items, in order.
1. CCCn1c(C(=O)c2c[nH]c3ccccc23)cc2ccsc21 [Compound I-64]
2. CCCn1c(C)c(C(=O)c2cc3ccsc3s2)c2ccccc21 [Compound I-46]
3. Cc1[nH]c2ccsc2c1C(=O)c1cccc2ccccc12 [Compound I-4]
4. CCCn1c(C)c(C(=O)c2cc3ccsc3n2CCC)c2cc(C)ccc21 [Compound I-69]
5. CCCn1c(C)c(C(=O)c2cc3cc(Cl)sc3n2CCC)c2ccccc21 [Compound I-49]
6. CCCn1c(C)c(C(=O)c2cc3ccsc3n2CCC)c2ccccc21 [Compound I-78]

1: 100 to 1000 nM; 2: 100 to 1000 nM; 3: 1000 to 10000 nM; 4: < 100 nM; 5: < 100 nM; 6: < 100 nM
